target: trypsin; assay: Inhibition constants for trypsin, determined in analogy to uPA
Sequence (P00760 24-246 limits assumed): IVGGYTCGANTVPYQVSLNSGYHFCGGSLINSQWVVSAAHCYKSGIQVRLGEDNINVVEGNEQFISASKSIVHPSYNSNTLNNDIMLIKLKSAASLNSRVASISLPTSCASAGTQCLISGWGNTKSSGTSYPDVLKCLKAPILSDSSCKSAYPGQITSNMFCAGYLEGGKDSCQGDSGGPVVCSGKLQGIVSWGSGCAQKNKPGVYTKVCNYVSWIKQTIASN
Property measured: Ki (µM)

Example cases with answers are listed next.
* N=C(N)c1ccc(CNC(=O)[C@H](Cc2cnc[nH]2)NC(=O)[C@@H](CO)NS(=O)(=O)Cc2ccccc2)cc1 [Example 12, Benzylsulfonyl-dSer-His-4-Amba] | 0.025
* C[C@H](NC(=O)[C@@H](CO)NS(=O)(=O)Cc1cccc(C(=O)O)c1)C(=O)NCc1ccc(C(=N)N)cc1 [R=3-COOH, X=CH, R1=CH3] | 0.021
* C[C@H](NC(=O)[C@@H](CO)NS(=O)(=O)Cc1ccc(C(=O)O)cc1)C(=O)NCc1ccc(C(=N)N)cc1 [R=4-COOH, X=CH, R1=CH3] | 0.013

P = CC(OCc1ccccc1)[C@H](NC(=O)[C@@H](CO)NS(=O)(=O)Cc1ccccc1)C(=O)NCc1ccc(C(=N)N)cc1 (stereo partly drawn) [R=H, X=CH, R1=CH(OBzl)CH3]
Q = N=C(N)c1ccc(CNC(=O)[C@H](CN)NC(=O)[C@@H](CO)NS(=O)(=O)Cc2ccccc2)cc1 [R=H, X=CH, R1=CH2—NH2]
R = N=C(N)c1ccc(CNC(=O)CNC(=O)[C@@H](CN)NS(=O)(=O)Cc2ccccc2)cc1 [Example 11, Benzylsulfonyl-dDap-Gly-4-Amba]
Prompt: // smallest Ki at index 0, largest at the end Labels, requested order.
Response: P, Q, R
